These data points were gathered from patent US20150320723A1.

tested on: oncogenic SmoM2 protein; assay: Initial testing of compounds: SmoM2 protein stability in cultured mouse NIH3T3 cells; type: cell-based
endpoint_label: effect on oncogenic SmoM2 protein

The observed effect on oncogenic SmoM2 protein for "CC1(C)CC(=O)c2c(C(F)(F)F)nn(-c3ccc(C(N)=O)c(N[C@H]4CC[C@H](O)CC4)c3)c2C1" when tested with oncogenic SmoM2 protein stands at destabilize

Field effect on oncogenic SmoM2 protein (oncogenic SmoM2 protein), entry "C=CCNC1=C2C[C@@H](C)C[C@H](OC)[C@H](O)[C@@H](C)/C=C(\C)[C@H](OC(N)=O)[C@@H](OC)/C=C\C=C(/C)C(=O)NC(=CC1=O)C2=O" : destabilize

Log: oncogenic SmoM2 protein, compound CC1(C)C(N(O)C(=O)Nc2ccc(Cl)cc2)N(c2ccc(Cl)cc2)C(=O)N1CC(=O)NN=CC=Cc1ccc([N+](=O)[O-])o1 (stereo not shown) , effect on oncogenic SmoM2 protein = destabilize

Reported effect on oncogenic SmoM2 protein (oncogenic SmoM2 protein) for entry "CO[C@H]1/C=C\C=C(/C)C(=O)NC2=CC(=O)C(NCCN(C)C)=C(C[C@@H](C)C[C@H](OC)[C@H](O)[C@@H](C)/C=C(\C)[C@@H]1OC(N)=O)C2=O" is destabilize
